Values were extracted from ChEMBL document CHEMBL1821719.

- experimental.details: Drug level in human SUP-M2 cells xenografted SCID mouse tumor at 30 mg/kg, po bid for 12 days measured after 2 hrs of final dose by LC/MS analysis
- Type: ADME, organism-based, Neoplasm
- Design: dose 30 mg/kg, route oral
- experimental.setup: read-out: Drug uptake
readout.label: concentration at 2 h (ng/g)
All answers are understood in ng/g, so give the number only.

Sure, the documented concentration at 2 h for COc1cc(N2CCN(C[C@H](C)O)CC2)ccc1Nc1ncc2ccc(-c3ccccc3N(C)S(C)(=O)=O)n2n1 is 3120

* * *

- experimental.details: Plasma concentration in human SUP-M2 cells xenografted SCID mouse at 10 mg/kg, po bid for 12 days measured after 2 hrs of final dose by LC/MS analysis
- Type: ADME, organism-based
- Set-up: dose 10 mg/kg, route oral
readout.label: concentration at 2 h (ng/mL)
All answers are understood in ng/mL, so give the number only.

Sure, the documented concentration at 2 h for COc1cc(N2CCN(C[C@H](C)O)CC2)ccc1Nc1ncc2ccc(-c3ccccc3N(C)S(C)(=O)=O)n2n1 is 516

* * *

- assayed.target: Insulin receptor (Homo sapiens)
- Sequence (P06213 28-758 limits assumed): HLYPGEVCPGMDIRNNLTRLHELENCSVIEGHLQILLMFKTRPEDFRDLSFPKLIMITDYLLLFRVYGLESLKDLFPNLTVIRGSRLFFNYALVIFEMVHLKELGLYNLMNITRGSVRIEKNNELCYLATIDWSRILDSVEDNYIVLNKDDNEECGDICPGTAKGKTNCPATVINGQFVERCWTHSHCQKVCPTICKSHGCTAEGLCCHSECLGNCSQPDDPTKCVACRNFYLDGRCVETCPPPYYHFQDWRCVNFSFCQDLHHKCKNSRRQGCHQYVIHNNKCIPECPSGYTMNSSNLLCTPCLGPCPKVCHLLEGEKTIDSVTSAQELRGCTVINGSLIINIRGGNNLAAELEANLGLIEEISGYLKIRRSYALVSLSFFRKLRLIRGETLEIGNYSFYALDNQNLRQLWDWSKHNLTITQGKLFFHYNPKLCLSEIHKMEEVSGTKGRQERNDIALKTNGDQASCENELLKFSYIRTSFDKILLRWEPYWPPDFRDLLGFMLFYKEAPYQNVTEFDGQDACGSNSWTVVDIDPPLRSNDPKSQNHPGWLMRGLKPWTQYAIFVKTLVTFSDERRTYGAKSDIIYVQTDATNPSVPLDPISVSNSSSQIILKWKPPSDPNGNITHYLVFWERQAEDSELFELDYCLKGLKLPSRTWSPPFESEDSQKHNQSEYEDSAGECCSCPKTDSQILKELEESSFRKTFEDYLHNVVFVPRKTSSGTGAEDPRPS
- Sequence (P06213 763-1382 limits assumed): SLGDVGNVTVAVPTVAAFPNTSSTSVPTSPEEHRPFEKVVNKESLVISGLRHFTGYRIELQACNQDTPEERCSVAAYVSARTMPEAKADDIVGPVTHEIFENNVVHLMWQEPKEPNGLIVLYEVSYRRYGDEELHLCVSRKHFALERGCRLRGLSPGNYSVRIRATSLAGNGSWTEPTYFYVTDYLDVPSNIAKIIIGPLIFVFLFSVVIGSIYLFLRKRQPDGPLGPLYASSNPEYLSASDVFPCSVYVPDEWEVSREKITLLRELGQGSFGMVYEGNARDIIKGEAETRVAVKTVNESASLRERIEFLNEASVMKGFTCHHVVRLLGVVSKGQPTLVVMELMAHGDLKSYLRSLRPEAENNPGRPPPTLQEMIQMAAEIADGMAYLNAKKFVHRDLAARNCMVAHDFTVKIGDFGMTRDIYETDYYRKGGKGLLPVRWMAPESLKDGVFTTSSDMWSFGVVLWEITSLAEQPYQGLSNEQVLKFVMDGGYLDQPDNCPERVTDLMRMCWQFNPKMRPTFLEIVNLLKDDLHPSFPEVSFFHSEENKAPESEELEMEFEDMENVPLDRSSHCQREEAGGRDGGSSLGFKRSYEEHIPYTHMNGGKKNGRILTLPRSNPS
pIC50: −log10 of the molar value.
Label label 1 for high-side pIC50 (at or above 7) and label 0 for low-side pIC50 (below it).

Some solved entries appear below for comparison.
structure.string | assayed.target | answer.label
COc1cc(N2CCN(C)CC2)ccc1Nc1ncc2ccc(-c3ccccc3N(C)S(C)(=O)=O)n2n1 | Insulin receptor (Homo sapiens) | label 0
COCCN1CCc2ccc(Nc3ncc4ccc(-c5ccccc5)n4n3)cc2CC1 | Insulin receptor (Homo sapiens) | label 1
COc1cc(N2CCN(C)CC2)ccc1Nc1ncc2ccc(-c3ccccc3OC)n2n1 | Insulin receptor (Homo sapiens) | label 0

// switching to the query compound
# bool: pIC50 of COc1cc(N2CCN(C[C@H](C)O)CC2)ccc1Nc1ncc2ccc(-c3ccccc3OC)n2n1 >= 7
label 0

* * *

- experimental.details: Oral bioavailability in SCID mouse at 10 mg/kg
- Format: ADME, organism-based
- experimental.setup: in vivo
readout.label: bioavailability (%)
All answers are understood in %, so give the number only.

Sure, the documented bioavailability for COc1cc(N2CCN(C[C@H](C)O)CC2)ccc1Nc1ncc2ccc(-c3ccccc3N(C)S(C)(=O)=O)n2n1 is 36

* * *

- assayed.target: ALK tyrosine kinase receptor (Homo sapiens)
- Sequence (Q9UM73 whole entry): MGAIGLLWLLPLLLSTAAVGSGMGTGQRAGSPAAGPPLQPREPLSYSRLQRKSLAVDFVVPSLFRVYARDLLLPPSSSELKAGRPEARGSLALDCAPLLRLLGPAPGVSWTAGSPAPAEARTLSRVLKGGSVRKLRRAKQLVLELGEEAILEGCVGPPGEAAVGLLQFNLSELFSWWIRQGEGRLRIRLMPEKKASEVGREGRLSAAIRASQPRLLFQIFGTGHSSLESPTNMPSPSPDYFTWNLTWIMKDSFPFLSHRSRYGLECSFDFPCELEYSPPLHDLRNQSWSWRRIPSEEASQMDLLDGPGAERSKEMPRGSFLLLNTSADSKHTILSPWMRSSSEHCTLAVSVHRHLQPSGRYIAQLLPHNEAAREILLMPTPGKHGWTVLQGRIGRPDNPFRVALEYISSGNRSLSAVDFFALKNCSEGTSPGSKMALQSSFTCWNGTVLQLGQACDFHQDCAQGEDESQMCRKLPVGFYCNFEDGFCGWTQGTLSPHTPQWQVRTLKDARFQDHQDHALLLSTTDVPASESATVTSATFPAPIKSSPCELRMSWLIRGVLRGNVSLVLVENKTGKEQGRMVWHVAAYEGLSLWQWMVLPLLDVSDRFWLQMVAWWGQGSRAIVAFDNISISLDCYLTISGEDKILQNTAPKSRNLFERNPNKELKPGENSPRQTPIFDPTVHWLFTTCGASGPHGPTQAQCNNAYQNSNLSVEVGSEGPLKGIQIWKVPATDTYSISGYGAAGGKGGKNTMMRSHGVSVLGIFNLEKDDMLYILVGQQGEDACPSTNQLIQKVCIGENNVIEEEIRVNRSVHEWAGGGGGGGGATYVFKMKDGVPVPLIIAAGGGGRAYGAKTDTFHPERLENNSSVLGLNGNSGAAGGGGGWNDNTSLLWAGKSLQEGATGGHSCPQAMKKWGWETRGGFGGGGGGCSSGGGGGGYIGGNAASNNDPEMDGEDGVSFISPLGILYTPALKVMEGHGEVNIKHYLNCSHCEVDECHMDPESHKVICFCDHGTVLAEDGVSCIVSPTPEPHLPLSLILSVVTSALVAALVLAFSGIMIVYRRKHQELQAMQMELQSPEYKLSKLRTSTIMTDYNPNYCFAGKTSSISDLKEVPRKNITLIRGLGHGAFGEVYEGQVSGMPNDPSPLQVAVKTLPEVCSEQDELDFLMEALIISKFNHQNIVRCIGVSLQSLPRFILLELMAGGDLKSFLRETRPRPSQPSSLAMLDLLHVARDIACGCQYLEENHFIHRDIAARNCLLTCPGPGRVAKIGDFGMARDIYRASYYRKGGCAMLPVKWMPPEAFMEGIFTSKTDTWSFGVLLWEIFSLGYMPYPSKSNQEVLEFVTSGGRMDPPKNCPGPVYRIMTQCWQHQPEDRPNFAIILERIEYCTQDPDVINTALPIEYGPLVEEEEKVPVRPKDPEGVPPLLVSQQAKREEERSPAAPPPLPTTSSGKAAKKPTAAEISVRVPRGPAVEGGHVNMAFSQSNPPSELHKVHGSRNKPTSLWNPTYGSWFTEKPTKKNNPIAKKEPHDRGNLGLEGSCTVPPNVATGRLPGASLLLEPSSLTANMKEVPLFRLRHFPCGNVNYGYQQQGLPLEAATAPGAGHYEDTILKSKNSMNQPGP
- experimental.details: Inhibition of human recombinant ALK assessed as phosphorylated product using PLC-gamma/GST substrate by modified ELISA method
readout.label: pIC50
pIC50 (log units): -log10 of the concentration in mol/L.

Would you please look over these solved cases?
structure.string | pIC50
COc1cc(N2CCN(N3CCOCC3)CC2)ccc1Nc1ncc2ccc(-c3ccccc3OC)n2n1 | 8.05
COc1cc(N2CCN(C)CC2)ccc1Nc1ncc2ccc(-c3ccccc3OC)n2n1 | 8.05
CN1CCN(c2ccc(Nc3ncc4ccc(-c5ccccc5N(C)S(C)(=O)=O)n4n3)cc2)CC1 | 8.15
COc1cc(N2CCC(N3CCOCC3)CC2)ccc1Nc1ncc2ccc(-c3ccccc3N(C)S(C)(=O)=O)n2n1 | 8.15
CN1CCN(c2ccc(Nc3ncc4ccc(-c5ccccc5)n4n3)cc2)CC1 | 7.32

Sure, the documented pIC50 for COc1cc(N2CCN(C)CC2)ccc1Nc1ncc2ccc(-c3ccccc3N(C)S(C)(=O)=O)n2n1 is 8.05

Sure, the documented pIC50 for COCCN1CCc2ccc(Nc3ncc4ccc(-c5ccccc5)n4n3)cc2CC1 is 7.42

Sure, the documented pIC50 for CN1CCN(c2ccc(Nc3ncc4ccc(-c5ccccc5C(N)=O)n4n3)cc2)CC1 is 6.14
